The values you see were collected from patent US20260356860A1.

system: S. aureus (derived from ATCC ® 6538 ™); test: Bacteriostasis, log reduction; type: cell-based; conditions: S. aureus ATCC 6538; 24 h
reportedMetric: Average result

For orientation, consider the following solved cases.
{"columns": ["molecule", "Average result"],
 "data": [
  ["CC(C)(OCCO)c1ccc(-c2nc3c(c(=O)[nH]2)CSCC3)cc1", "5.4 × 10^4"],
  ["COC(=O)NCCOC(C)(C)c1ccc(-c2nc3c(c(=O)[nH]2)CSCC3)cc1", "4.7 × 10^4"],
  ["Oc1nc(-c2ccc(C(F)(F)F)cc2)nc2c1CSCC2 [XAV939, reference compound]", "2.5 × 10^3"]
]}

So what's the measured Average result for this one? O=c1[nH]c(-c2ccc(-c3ccc(B(O)O)cc3)cc2)nc2c1CSCC2 1.5 × 10^5

Lookup O=c1[nH]c(-c2ccc(-c3ccc(Br)nc3)cc2)nc2c1CSCC2 7.3 × 10^2

Lookup O=c1[nH]c(-c2ccc(B(O)O)cc2)nc2c1CSCC2 8.7 × 10^4

###

test system: S. aureus (derived from ATCC ® 6538 ™); test: Bacteriostasis, log reduction; assay type: cell-based; settings: S. aureus ATCC 6538; 72 h
reportedMetric: Average result

For orientation, consider the following solved cases.
{"columns": ["compound", "Average result"],
 "data": [
  ["O=c1[nH]c(-c2ccc(-c3ccc(B(O)O)cc3)cc2)nc2c1CSCC2 [Compound 10]", "6.7 × 10^3"],
  ["Oc1nc(-c2ccc(C(F)(F)F)cc2)nc2c1CSCC2 [XAV939, reference compound]", "1.7 × 10^5"],
  ["CC(C)(OCCO)c1ccc(-c2nc3c(c(=O)[nH]2)CSCC3)cc1 [Compound 8]", "<7.4 × 10^3"],
  ["O=c1[nH]c(-c2ccc(B(O)O)cc2)nc2c1CSCC2 [Compound 1]", "<800"],
  ["COC(=O)NCCOC(C)(C)c1ccc(-c2nc3c(c(=O)[nH]2)CSCC3)cc1 [Compound 18]", "9.3 × 10^2"]
]}

Next item in the queue.
So what's the measured Average result for this one? O=c1[nH]c(-c2ccc(-c3ccc(Br)nc3)cc2)nc2c1CSCC2 [Compound 7] <200

###

test system: P. aeruginosa (derived from ATCC ® 15442 ™); assay: Bacteriostasis, log reduction; type: cell-based; conditions: P. aeruginosa ATCC 15442; 24 h
reportedMetric: Log Value

For orientation, consider the following solved cases.
{"columns": ["compound", "systemUnderTest", "Log Value"],
 "data": [
  ["O=c1[nH]c(-c2ccc(B(O)O)cc2)nc2c1CSCC2 [Compound 1]", "P. aeruginosa (derived from ATCC ® 15442 ™)", "<2.3"],
  ["O=c1[nH]c(-c2ccc(-c3ccc(B(O)O)cc3)cc2)nc2c1CSCC2 [Compound 10]", "P. aeruginosa (derived from ATCC ® 15442 ™)", "<2.3"]
]}

Enter reported Log Value observed with P. aeruginosa (derived from ATCC ® 15442 ™) for CC(C)(OCCO)c1ccc(-c2nc3c(c(=O)[nH]2)CSCC3)cc1 [Compound 8] 2.9

Lookup O=c1[nH]c(-c2ccc(-c3ccc(Br)nc3)cc2)nc2c1CSCC2 [Compound 7] <2.3

Lookup Oc1nc(-c2ccc(C(F)(F)F)cc2)nc2c1CSCC2 [XAV939, reference compound] <2.3

Lookup COC(=O)NCCOC(C)(C)c1ccc(-c2nc3c(c(=O)[nH]2)CSCC3)cc1 [Compound 18] <2.3
